assay: yeast display, Sf9 membrane polyspecificity reagent, FACS + sequencing; frameworks hold sequencing errors
OBSERVABLE: polyreactivity (PSR sort gate)

Consider the following illustrative entries.
| ITEM SEQUENCE | polyreactivity (PSR sort gate) |
| --- | --- |
| QVQLVESGGGLVQAGGSLRLSCAASGFTFRLYAMGWYRQAPGKERELVAAISWGGGSTYYADSVKGRFTISRDNAKNTLYLQMNSLKPEDTAVYYCAAYKYGYRYYYWGQGTLVTVSS | high polyreactivity |
| QVQLVESGGGLVQAGGSLRLSCAASGIIFVSYAMGWYRQAPGKEWELVADISSGGRTYYADSVKGRFTISRDNAKNTVYLPMNSLKPEDTAVYYCAKVKRDLQYPGLPEVLNREYWGQGTQVTVSS | high polyreactivity |
| QDQLVESGGGLVQAGGSLRLSCAASGRIFRGNAMGWYRQAPGKEREMVAAISRRSGSTYYADSVKGRFTISRDNAKNTVYLQMNSLKPEDTAVYYCAATSSLGDFRYDYWGQVTQVTVSS | high polyreactivity |
| QVQLVESGGGLVQAGGSLRLSCAASGSTFYGNMGWYRQAPGKERALVAAITYRGTNTYYADSVKGRFTISRDNAKNTVYLQMNSLKPEDTAVYYCAAEYDVYQGRGRYYGYDYWGQGTQVTVSS | high polyreactivity |
| QVHLVESGGGLVQAGGSLRLSCAASGLTFNRYTMGWYRQAPGKESELVAAITSSGSTYYADSVKGRFTISRDNAKNTVNLQMNSLKPEDTAVDYCNTVYYDWFHYDYWGQGTQVTVSS | high polyreactivity |

Data request: Give the measured polyreactivity (PSR sort gate) for "QVQLVESGGGLVQAGGSLRLSCAASGRIFDFYGMGWYTQAPGKERELVAAISRRSGSTYYADSVKGRFTISRDNAKNTDYLQMNSLKPEDTAVYYCAAEPSSYRYDYWGQGTQGTVSS"
Data returned: high polyreactivity

Data request: Give the measured polyreactivity (PSR sort gate) for "QVQLVESVGGLVQAGGSLRLSCAASGFTFYGYAMGWYRQAPGKERELVAAITSGGITNYADSVKGRFTISRDNAKNTVYLQMNSLKPEDTAVYYCNVKRRVSGYYGYKYYYWGQGTQVTVSS"
Data returned: high polyreactivity

Data request: Give the measured polyreactivity (PSR sort gate) for "QVPLEESGGGLVQAGGSLRLSCAASGFIIGLNAMGWYRQAPGKERELVAVITFSGGSTYYADSVKGRFTISRDNAKNTVFFQMNSLKPEDTAVYYCAARYYWYSVGYGYWGQGTQVTVSS"
Data returned: high polyreactivity

Data request: Give the measured polyreactivity (PSR sort gate) for "QVQLVESGGGLVQAGGSLRLSCAASGRIFRYYAMGWYGQAPGKEREFVAAINSSGVNTYYADSVKGRFTISRDNAKNTVYLQMNSLKPEDTAVYYCAFLGMDYWGQGTQVTVSS"
Data returned: high polyreactivity

Data request: Give the measured polyreactivity (PSR sort gate) for "QVQLVESGGGLVQAGGSLRLSCAASGFTFDLYAMGWYRQAPGKERELVAAISWSGGSTRYADSVKGRFTISRDNAKNTVYLQMNSLKPADSAVYYCARQPRLYFKGKLYGYWGQGTHVTVSS"
Data returned: high polyreactivity

* * *

test: yeast display, Sf9 membrane polyspecificity reagent, FACS + sequencing; frameworks hold sequencing errors
OBSERVABLE: polyreactivity (PSR sort gate)

| ITEM SEQUENCE | polyreactivity (PSR sort gate) |
| --- | --- |
| QVQLVESGGGLVQAGGSLRLSCAASGRTFDHNAMGWYRQAPGKERELVAAITSRGGSTYYADSVKGRFTISRDIAKYTGYLQMNSLKPEDTAVYYCAARKRSVYGTEYDYLGQGTQVTVSS | high polyreactivity |
| QVQLVESGGGIVQAGGSLRLSCAASGRTLPEYAMGWYIQEPGKERELVAAITSSSGSTYYADSVKVRFTISRDNAKNTVYLQMNSLIPEDTAVYYCAAESESGYHDYDYWGQGTQVTVSS | low polyreactivity |
| QVQLVESGGGLVQAGGSLSLSCAASGGIFQVNSMGWYRQATGKEREVLAAISWSVGRTYYADSVKGRFTISRDNAKNTVYLQMNSLKPEDTAVYYCARYGKRGYYYWGQGTQVTVSS | low polyreactivity |
| QVQLVESGGGLVQAGGSLRLSCAASGSTFCRNTMGWYRQAPGKERELVAAINRSASNTYYADSVKGRFTISRDNAKNTVYLQMNSLKQEDPAVYYCSTYSRIFKWEYYYWGQGTQGTVSS | high polyreactivity |

Pending sequence:
Data request: Give the measured polyreactivity (PSR sort gate) for "QVQIVESGGGLVQAGGSLRLSCAASGSICTHNDMGWYRPSTWKERELVAAISTSGGRTYDADSVKGSFTISRDTAKNTVYLPMNSLKPEDTAVYYCNDRSVRSRYDYWGQGTQVTVSS"
Data returned: high polyreactivity

* * *

assay: yeast display, Sf9 membrane polyspecificity reagent, FACS + sequencing; frameworks hold sequencing errors

| ITEM SEQUENCE | polyreactivity (PSR sort gate) |
| --- | --- |
| QVQLVESGVGIGQAGGSLRLTCAASGRTVSKYGKGWYRHAPGKEREMVAAISGRGGSTYYADSVKGRFTISRDHAKNTVYLQMNSLNPEDNAVYYCAQDLSYRPHGHGDGHYDFWGQGTQVTVSS | low polyreactivity |
| QDQLGDSGGGLLQAGGSLRLSCAASGQIYFDNMGWYRQAPGKEREMVAAISSSGASTSYADSVKGRFTISRDNAKNTVYLQIYSLNPEDTAVYYCAADSYPAYLGFVGFDYWGQGTQVTVSS | low polyreactivity |

* * *

experiment: yeast display, Sf9 membrane polyspecificity reagent, FACS + sequencing; frameworks hold sequencing errors
OBSERVABLE: polyreactivity (PSR sort gate)

| ITEM SEQUENCE | polyreactivity (PSR sort gate) |
| --- | --- |
| QVQLVESGGGLVQAGGSLRLSCAASGRTFSSNAMGWYRQAPGKERELVAAITYTGTSTYYADSVKGRFTISRDYAKNTVYLQMNSLKPEDTAVYYCAALYVQGTHTYGYWGQGTQVTVSS | high polyreactivity |
| QVQLVESGGGLVQAGGSLRLSCAASGFIFRYNAMGWYRQAPGKERELVASISYSGARTYYADSVKGRFTISRDNEKNTVYLQMNSLKPEDTAVYYCATGPLSYVRYYYWGQGTQVTVSS | low polyreactivity |
| QVQLVESGGGLVQAGGSLRLICAASGRISLSNAMGWYRHAPGKEREFVAAITKRSDRTYYADSVKGRFTISRDNAKNTVYLQMNSLKPEETAVYYCAAKPLFGTRDDYWGQGTQVTVSS | low polyreactivity |
| QVQLVESGGGLVQVGGSLRLSCAASGSIFVENAMGWYRQAPGKERELVAAITSGGSTNYADSVKGRFTISRDNAKNTVYLQMNSLKPEDTAVYYCNADENYGYYTHFGYWGQGTQVTVSS | low polyreactivity |

Data request: Give the measured polyreactivity (PSR sort gate) for "QVQLVESGGGLVQAGGSLRLSCAASGRISRSNTMGWYRQAPGKERELVAAISRGGGSTYYADSVKGRFTISRDNAKNTVYLQMKSLKPEDTAVYYCAKRSAITGYEYWGQGTQVTVSS"
Data returned: high polyreactivity

Data request: Give the measured polyreactivity (PSR sort gate) for "QVQLVESGGGLVQAGGSLRLSCAASGFTFAGYAMGWNRQAPGKERELVAASNRGGSTYYADSVKGRFTSSRDNAKHTVYLQRNSLKPEDTAVYYCAKAQRFYGGRMGYWGQGTQVTVSS"
Data returned: low polyreactivity

Data request: Give the measured polyreactivity (PSR sort gate) for "QVQLVESGGGLVQAGGSLRLSCAASGITFYVNAMGWYRQAPGKERELVAAINSGSTNYADSVKGRFTISRDNAKNTVYLQMNSLKPEDTAVYYCAVDVYWEFSPEYDYWGQGTQVTVSS"
Data returned: low polyreactivity

* * *

test: yeast display, Sf9 membrane polyspecificity reagent, FACS + sequencing; frameworks hold sequencing errors
OBSERVABLE: polyreactivity (PSR sort gate)

| ITEM SEQUENCE | polyreactivity (PSR sort gate) |
| --- | --- |
| QVQLVESGGGLVQAGGSLRLSCAASGRTFPLNAMGWYRQAPGKERELVAAITWSGGRTYYADSVKGRFTISRDNAKNTVYLQMNSLKPEDTAVYYCNVDKVTSWYYYGYWGQGTQVTVSS | low polyreactivity |
| QVQLVESFGGLVQAGGSLRLICAGSGLTCYVYAMGWSRPAPGKERELVAAISQRGGSTYYADSVKGRFTISRDKAKNTVYLQMNSLKPEDTAVYYCAKYTVQYAFSHYDYWGQGTQVTVSS | high polyreactivity |
| QVQLVESGGGLVQAGGSLRLSCAASGRIFYFNAMGWYRQAPGKEREFVASINSIGDSTYYADSVKGRFTISRDYAKNTVYLQMNRLKPEDTAVYYCNADHGVINYRLDYWGQGTQVTVSS | low polyreactivity |
| QVQLVESGGGLVQAGGSLRLSCAASGRTFWRYAMGWYRQAPGKERELVADISNSDTSTYYADSVKGRFTISRDNAKNSVYLQMKSLKPEDTAVYYCAARPFRFRLSDKYNYWGQGTQVTVSS | high polyreactivity |

Data request: Give the measured polyreactivity (PSR sort gate) for "QVQLVESGGGLVQAGGSLRLSCAASGFTFTQYVKGWYRQAPGKERELVAAITRGGGSTYYADSVKGRFTISRDNAKNTVYLQMNRLKPEDTAFYYCATRRVEYIRGWVEYDYWGQGTQVTVSS"
Data returned: low polyreactivity

Data request: Give the measured polyreactivity (PSR sort gate) for "QVQLVESGGGLVQAGGSLRLSCAASGNTYTSYAMGWYRQAPGKDRELVAAISASGSSTYYADSVKGRFTISRDNAKNTVYLQMNSLKPEDTAVFYCARQWYWRPGYYMGQGYEYWGQGTQVTVSS"
Data returned: low polyreactivity

Data request: Give the measured polyreactivity (PSR sort gate) for "QVQLVESGGGLVQAGGSLRLSCAASGRTFWIYAMGWYRQAPGKEREFVAAISSSGGGTYYADSVKGRFTISRDNAKNTVYLQMNSLKPEDTAVYYCAKDLYFSKGYYWGQGTQVTVSS"
Data returned: low polyreactivity
